Target Entity: Cytochrome P450 2D6 (Homo sapiens) (UniProt P10635)
Sequence (P10635 whole entry, looked up): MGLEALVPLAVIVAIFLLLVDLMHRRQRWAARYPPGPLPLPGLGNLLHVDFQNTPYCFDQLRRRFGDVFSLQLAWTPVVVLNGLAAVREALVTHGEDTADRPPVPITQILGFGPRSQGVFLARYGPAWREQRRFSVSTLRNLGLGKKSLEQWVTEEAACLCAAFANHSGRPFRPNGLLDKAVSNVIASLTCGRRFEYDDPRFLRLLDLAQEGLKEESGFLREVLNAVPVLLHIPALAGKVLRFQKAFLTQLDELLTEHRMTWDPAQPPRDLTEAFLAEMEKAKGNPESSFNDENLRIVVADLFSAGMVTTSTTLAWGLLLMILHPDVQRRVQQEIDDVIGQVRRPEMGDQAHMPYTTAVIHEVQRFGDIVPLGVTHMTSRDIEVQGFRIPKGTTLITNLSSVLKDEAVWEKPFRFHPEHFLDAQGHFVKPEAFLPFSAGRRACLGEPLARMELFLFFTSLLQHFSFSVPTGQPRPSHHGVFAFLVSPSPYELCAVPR
Experiment Notes: Cytochrome P450 family 2 subfamily D member 6 (CYP2D6) small molecule antagonists: luciferase biochemical (cell-free) qHTS assay (AID 1645840); further: nearly all actives have a fitted effect of over 55% in size
Reported Conditions: P450-Glo CYP2D6 enzyme, luciferin luminescence, 1 h; series mostly up to 57.4 µM
Inconclusive results are not listed. The source made the active and inactive calls. The call rests on the fitted dose curve; in most records, active means well fitted inhibition curve with a large enough effect in the repeat runs; inconclusive means weak or mixed curves; inactive means flat fitted curve, though single readings scatter.
Select the correct class. Options are active, inactive and nothing else.

INSERT INTO results (compound, target_entity, class_assignment) VALUES
  ('CNc1cccc(CCOc2ccc3c(c2)CN(CC(F)(F)F)C(=O)[C@H](CC(=O)O)C3)n1', 'Cytochrome P450 2D6 (Homo sapiens) (UniProt P10635)', 'inactive'),
  ('Clc1ccc(Cn2c(Cc3ccccc3)nc3ccccc32)cc1', 'Cytochrome P450 2D6 (Homo sapiens) (UniProt P10635)', 'active'),
  ('O=c1ccc2ccc(OCCCCN3CCN(c4cccc5sccc45)CC3)cc2[nH]1', 'Cytochrome P450 2D6 (Homo sapiens) (UniProt P10635)', 'active'),
  ('Cc1nc(NC(=O)N2CCC[C@H]2C(N)=O)sc1-c1ccnc(C(C)(C)C(F)(F)F)c1', 'Cytochrome P450 2D6 (Homo sapiens) (UniProt P10635)', 'inactive'),
  ('CC(C)c1ccc(NC(=O)c2cccs2)c(-c2nc3ccccc3[nH]c2=O)c1', 'Cytochrome P450 2D6 (Homo sapiens) (UniProt P10635)', 'active');

Query compound follows.
QUERY: Check the results log: what was the call for CN(C)Cc1ccc(-c2cnn3c(-c4cccc(NC(=O)c5cccc(C(F)(F)F)c5)c4)ccnc23)cc1 ?
RESULT: active

###

System: HeLa
Experiment Notes: Primary qHTS to identify gynecologic anti-cancer compounds using libraries of approved drugs and bioactive compounds (AID 1345084); further: on the % scale 0 is the no-effect control and ±100 the full control effect; nearly all actives have a fitted effect of over 55% in size
Reported Conditions: Gynecologic cancer cell panel viability, ATPlite luminescence, 48 h; series mostly up to 57.5 µM
Results filed as inconclusive are left out. Calls of active or inactive are those of the source. The call rests on the fitted dose curve; in most records, active means well fitted cell-killing curve with a large enough effect; inconclusive means small, poorly fitted or top-dose-only effect, or effect the other way; inactive means flat fitted curve, though single readings scatter.
Permitted responses: 1 (yes) = active, 0 (no) = inactive

Solved entries (count: 3):
INSERT INTO results (molecule, class_assignment) VALUES
  ('COc1ccc2cc(-c3cc(-c4cc(Cl)cc(Cl)c4)nn3C(C)c3ccc(C(=O)NCCC(=O)O)cc3)ccc2c1 (stereo not drawn)', '0 (no)'),
  ('OC1CCC(Nc2nc(-c3ccccc3)nc3[nH]ccc23)CC1 (stereo not drawn)', '0 (no)'),
  ('CNCCC(c1cccs1)c1ccc(O)c2ccccc12 (stereo not drawn)', '0 (no)');

QUERY: Could you check what this test reported for CC1OC2OC(=O)C3(C)CC4C5(CO5)C5=CC(=O)OC(C)(C)C5=CC(=O)C4(C)C(C1=O)C23 (stereo not drawn) ?
RESULT: 0 (no)

QUERY: Hi, sorry to bother you, what did the test record for CCN(CC)CCCCCCNc1cc(OC)cc2c(C)ccnc12 ?
RESULT: 0 (no)

QUERY: Kindly provide the recorded test outcome for the following molecule: CN1CCN(C2CCN(C(=O)Nc3cc(Oc4ccc(NC(=O)C5(C(=O)Nc6ccc(F)cc6)CC5)c(F)c4)ccn3)CC2)CC1
RESULT: 0 (no)

QUERY: Per the assay record, what outcome was assigned to CCOc1ccc(-n2c([C@@H](C)N(Cc3cccnc3)C(=O)Cc3ccc(OC(F)(F)F)cc3)nc3ncccc3c2=O)cc1 ?
RESULT: 0 (no)

QUERY: For CCCC(=O)C1(c2ccccc2)CCN(C(=O)[C@@H](Cc2ccc(OC)cc2)NC(=O)[C@@H](N)Cc2cncn2C)CC1 , which call appears in the assay record?
RESULT: 0 (no)

QUERY: I'd appreciate the recorded outcome for CNc1cc2[nH]c(=O)n(-c3ccc(NC(=O)NS(=O)(=O)c4ccc(Cl)s4)cc3)c(=O)c2cc1F from this test.
RESULT: 0 (no)

###

Tested on: NIH3T3
Experiment Notes: Cytotoxic Profiling of Annotated Libraries Using Quantitative High-Throughput Screening (AID 1296008); further: nearly all actives have a fitted effect of over 60% in size
Reported Conditions: Five cell lines viability, CellTiter-Glo ATP luminescence, 48-72 h
Inconclusive results are not listed. The source made the active and inactive calls. The call rests on the fitted dose curve; in most records, active means well fitted inhibition curve with a large enough effect; inconclusive means small, poorly fitted or top-dose-only effect; inactive means flat fitted curve, though single readings scatter.
Can you answer with just one of these options? t (active), f (inactive)

INSERT INTO assay_data (compound, class_assignment) VALUES
  ('COc1cc2ncnc(Nc3cccc(I)c3)c2cc1OC', 'f');

Next item in the queue.
QUERY: Entry O=C(NCC1CCN(Cc2cccc(Cl)c2)CC1)[C@@H]1CCCN(c2ncnc3c2nc2n3CCCC2)C1 : call = ?
RESULT: f

###

Tested on: Zika virus NS2B-NS3 protease (unlinked complex)
Experiment Notes: Primary screen GU Rhodamine qHTS for Zika virus inhibitors: Unlinked NS2B-NS3 protease assay (AID 1347159); further: on the % scale 0 is the no-effect control and ±100 the full control effect; nearly all actives have a fitted effect of over 60% in size
Reported Conditions: Recombinant ZIKV NS2B-NS3 protease, Rhodamine110 substrate fluorescence; series mostly up to 107 µM
Records with an inconclusive call do not appear. Active and inactive are the calls of the source. Calls come from the whole dose curve; as a rule, active = well fitted inhibition curve with a large enough effect; inconclusive = small, poorly fitted or top-dose-only effect; inactive = no such curve, though single readings can be large or run the other way.
The reply should name one outcome from active, inactive

INSERT INTO assay_data (molecule, class_assignment) VALUES
  ('CC(=O)c1ccc2c(c1)[C@H](NC(=O)c1ccc(F)c(Cl)c1)[C@H](O)C(C)(C)O2', 'inactive');

Now look at this entry.
QUERY: So what was the verdict on COc1ccc(CNc2nc(N(CCO)CCO)nc3c2ncn3C(C)C)cc1 in this test?
RESULT: inactive

###

Test system: OV90
Experiment Notes: Primary qHTS to identify gynecologic anti-cancer compounds using libraries of approved drugs and bioactive compounds (AID 1345084); further: on the % scale 0 is the no-effect control and ±100 the full control effect; nearly all actives have a fitted effect of over 55% in size
Reported Conditions: Gynecologic cancer cell panel viability, ATPlite luminescence, 48 h; series mostly up to 57.5 µM
Excerpt: National Center for Advancing Translational Sciences [NCATS] Assay Overview: Chemotherapeutic drug responses vary from cancer to cancer and from patient to patient. […] ATPlite is a luminescence based assay reliant on the conversion of a luciferase substrate to light in the presence of ATP. As a cytotoxic compound will suppress growth and decrease the number of cells, the concentration of ATP will decrease, and less light signal will be detected in the well. […]
Records with an inconclusive call do not appear. The source made the active and inactive calls. Calls follow the shape of the dose curve; as a rule, active = well fitted cell-killing curve with a large enough effect; inconclusive = small, poorly fitted or top-dose-only effect, or effect the other way; inactive = flat fitted curve, though single readings scatter.
Each entry below carries its recorded activity change, negative = cytotoxicity.

QUERY: Given the molecule CC(CCC1(O)OC2CC3C4CC=C5C[C@@H](O[C@@H]6O[C@H](CO)[C@@H](O[C@@H]7O[C@@H](C)[C@H](O)[C@@H](O)[C@H]7O)[C@H](O)[C@H]6O[C@@H]6O[C@@H](C)[C@H](O)[C@@H](O)[C@H]6O)CC[C@]5(C)C4CC[C@]3(C)[C@@]2(O)[C@@H]1C)CO[C@@H]1O[C@H](CO)[C@@H](O)[C@H](O)[C@H]1O (stereo partly drawn) , what is its reported activity change, negative = cytotoxicity?
RESULT: 3.45% [at 11.6 µM] (inactive)

QUERY: Please report the recorded activity change, negative = cytotoxicity for CC1(C)CC[C@]23CO[C@@]4(CCC5[C@@]6(C)CC[C@H](O[C@@H]7OC[C@H](O[C@@H]8O[C@H](CO)[C@@H](O)[C@H](O)[C@H]8O[C@@H]8OC[C@@H](O)[C@H](O)[C@H]8O)[C@H](O)[C@H]7O)[C@@](C)(CO)C6CC[C@@]5(C)[C@]4(C)CC2=O)[C@@H]3C1 (stereo partly drawn) .
RESULT: -4.17% [at 11.6 µM] (inactive)

QUERY: Need activity change, negative = cytotoxicity of CC(=O)O[C@@H]1C[C@]2(C)[C@@]3(CCC4[C@@]5(C)CC[C@H](O[C@@H]6O[C@H](C(=O)O)[C@@H](O)[C@H](OC7OC(CO)C(O)C(O)[C@H]7O[C@@H]7O[C@@H](C)[C@H](O)[C@@H](O)[C@H]7O[C@@H]7OC[C@](O)(CO)[C@H]7O)[C@H]6OC6OC(CO)C(O)C(O)C6O)C(C)(C)C5CC[C@]42C)OC[C@@]12CCC(C)(C)CC23 (stereo partly drawn) , thanks.
RESULT: -14.9% [at 6.55 µM] (inactive)

###

Tested on: KB-3-1
Experiment Notes: Cytotoxic Profiling of Annotated Libraries Using Quantitative High-Throughput Screening (AID 1296008); further: nearly all actives have a fitted effect of over 60% in size; on max response: on the % scale 0 is the no-effect control and ±100 the full control effect
Reported Conditions: Five cell lines viability, CellTiter-Glo ATP luminescence, 48-72 h; stronger effect = lower value
Results filed as inconclusive are left out.
Reported Metric: max response (%)
Reply numerically in %, unit not repeated.

INSERT INTO results (compound, target_entity, reported_metric, observed_result) VALUES
  ('O=C(NCc1cccs1)c1cc2nc(-c3ccco3)cc(C(F)(F)Cl)n2n1', 'KB-3-1', 'max response', 3.07),
  ('COc1ccc(CCCN2CCC(COC(c3ccccc3)c3ccccc3)CC2)cc1', 'KB-3-1', 'max response', -17.2),
  ('O=C(NCCN1CCN(c2cccc3c2OCCO3)CC1)c1ccc(F)cc1', 'KB-3-1', 'max response', -10.3),
  ('COc1ccc(CNCc2cccc3ccccc23)cc1', 'KB-3-1', 'max response', 3.07),
  ('C=CC1(C)CC(O)C(C(=C)C(=O)OC)C(O)C1C(=C)CO (stereo unspecified)', 'KB-3-1', 'max response', 0.16),
  ('CC(C)(C)OC(=O)c1ncn2c1C(C)(C)Nc1ccccc1-2', 'KB-3-1', 'max response', 0.574),
  ('CNCc1cc(-c2ccccc2F)n(S(=O)(=O)c2cccnc2)c1', 'KB-3-1', 'max response', -0.384),
  ('CCOC(=O)Nc1ccc2c(c1)N(C(=O)CN(C)C)c1ccccc1CC2', 'KB-3-1', 'max response', -13.4),
  ('Cc1ccc(S(=O)(=O)N2CCC[C@H]2c2ccc(F)cc2)cc1', 'KB-3-1', 'max response', -12.3),
  ('O=C(NCC1CCN(Cc2cccc(Cl)c2)CC1)[C@@H]1CCCN(c2ncnc3c2nc2n3CCCC2)C1', 'KB-3-1', 'max response', -6.02);

QUERY: Any idea what max response was measured for COc1ccccc1OCCN1CC(COc2cccc3[nH]c4ccccc4c23)OCC1=O (stereo unspecified) ?
RESULT: -7.07
